experiment: NCI Yeast Anticancer Drug Screen. Data for the sgs1 mgt1 strain (AID 161);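 note: 0% = growth of cultures given vehicle only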; settings: S. cerevisiae sgs1 mgt1 strain, at 50.0 µM, hits give high values
The panel holds about 79,000 compounds, 15% with a hit somewhere; the sample as a whole holds those more often. Activity calls are given as the source filed them. Cut-off read from the data, not from the text of the source: active = growth inhibition above about 70%; inactive = the rest.

[
  {
    "Compound": "COc1cc(Br)cc2nc(-c3cccs3)oc12",
    "growth inhibition": "-62.2% (inactive)"
  },
  {
    "Compound": "CCOC(=O)c1cnc2n(c1=O)[C@H]1CCCC[C@@H]1N2",
    "growth inhibition": "-9.05% (inactive)"
  },
  {
    "Compound": "O=NNc1ccc(SSc2ccc(NN=O)cc2)cc1",
    "growth inhibition": "22.9% (inactive)"
  },
  {
    "Compound": "CC1=C(C(=O)OCCO[N+](=O)[O-])C(c2ccccc2C(F)(F)F)C(C(=O)OC(C)C)=C(C)N1 (configuration not stated)",
    "growth inhibition": "32.9% (inactive)"
  },
  {
    "Compound": "CCOC(=O)C1=C(C(=O)c2ccccc2)C(c2ccc([N+](=O)[O-])cc2)C(C(=O)c2ccccc2)=C(C(=O)OCC)N1",
    "growth inhibition": "-4% (inactive)"
  },
  {
    "Compound": "Cc1nc([N+](=O)[O-])cn1/C=C/Cn1cc([N+](=O)[O-])nc1C",
    "growth inhibition": "5% (inactive)"
  },
  {
    "Compound": "O=C(O)C1CCCCN1/N=C/c1ccccc1 (configuration not stated)",
    "growth inhibition": "-1.65% (inactive)"
  },
  {
    "Compound": "Cc1ccc(S(=O)(=O)Nc2ccccc2)cc1",
    "growth inhibition": "21% (inactive)"
  },
  {
    "Compound": "C[Si](C)(C)N1CCCC1",
    "growth inhibition": "-16.8% (inactive)"
  },
  {
    "Compound": "CCOC(=O)CC1CCC(CCCCC2CCC(CC(=O)OCC)CC2)CC1 (configuration not stated)",
    "growth inhibition": "80% (active)"
  },
  {
    "Compound": "CON(C)S(=O)c1ccc([N+](=O)[O-])cc1 (configuration not stated)",
    "growth inhibition": "5.45% (inactive)"
  },
  {
    "Compound": "CCCCCc1c(-c2n[nH]c(C)c2CCCCC)n[nH]c1C",
    "growth inhibition": "-9.1% (inactive)"
  }
]

* * *

test: NCI Yeast Anticancer Drug Screen. Data for the cln2 rad14 strain (AID 165);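 note: 0% = growth equal to vehicle treated cultures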; settings: S. cerevisiae cln2 rad14 strain, at 50.0 µM, hits give high values
This is part of a sample that, as a whole, favours compounds with a hit. Of some 79,000 tested, about 15% had one in any assay.
Each entry belongs to exactly one class, chosen by where its growth inhibition falls: low end (below -10%), middle (-10% to below 20%), high end (20% or more)

[
  {
    "Molecule": "CCNN(CC)C(N)=O",
    "Class assignment": "middle"
  },
  {
    "Molecule": "COc1ccc(S(=O)(=O)N/N=C/c2cc(I)cc([N+](=O)[O-])c2O)cc1",
    "Class assignment": "middle"
  },
  {
    "Molecule": "CC1(C)Cc2oc(=Nc3ccccc3)n(-c3ccccc3)c(=O)c2C1",
    "Class assignment": "low end"
  },
  {
    "Molecule": "COc1ccc(Cc2cc(OC)c(OC)c(OC)c2)cc1O",
    "Class assignment": "low end"
  },
  {
    "Molecule": "C/C(=C1/CCOC1=O)c1cccc(/C(C)=C2\\CCOC2=O)c1",
    "Class assignment": "low end"
  },
  {
    "Molecule": "Nc1ccc(N=Nc2ccc(OCCN(CCO)CCO)cc2)c(N)n1",
    "Class assignment": "middle"
  },
  {
    "Molecule": "O=C(O)CCc1ccc2c(c1)CC1(Cc3ccccc3C1)C2",
    "Class assignment": "high end"
  },
  {
    "Molecule": "NCCCc1c(-c2ccccc2)nc(N)[nH]c1=O",
    "Class assignment": "low end"
  },
  {
    "Molecule": "O=C(Nc1ccc(Cl)cc1)c1cccnc1",
    "Class assignment": "middle"
  },
  {
    "Molecule": "O=C1C(/C=N\\C(=S)NCc2ccccc2)=C(O)c2ccccc21",
    "Class assignment": "middle"
  },
  {
    "Molecule": "O=[N+]([O-])c1ccc(OC2CC3C4C=CC3C2C4)c([N+](=O)[O-])c1 (stereo not drawn)",
    "Class assignment": "high end"
  },
  {
    "Molecule": "O=C(/C=C/c1ccco1)N1CCN(Cc2ccccc2)CC1",
    "Class assignment": "high end"
  },
  {
    "Molecule": "ClCCCCOC1CCCCO1 (stereo not drawn)",
    "Class assignment": "middle"
  },
  {
    "Molecule": "NC(=O)C(C1=CCCCC1)c1ccccc1 (stereo not drawn)",
    "Class assignment": "middle"
  },
  {
    "Molecule": "CC(=O)NNc1nc(C)c(C(=O)/C=C/c2ccc(Cl)cc2)s1",
    "Class assignment": "high end"
  },
  {
    "Molecule": "CCCC(=O)Oc1ccc(C(C)(C)C)cc1C",
    "Class assignment": "low end"
  },
  {
    "Molecule": "COC(=O)C1CCCN1C(=O)c1ccccc1 (stereo not drawn)",
    "Class assignment": "low end"
  },
  {
    "Molecule": "CCOC(=O)c1ccc(N[C@@H]2c3cc4c(cc3C(c3cc(OC)c(O)c(OC)c3)[C@H]3C(=O)OCC32)OCO4)cc1 (stereo partly drawn)",
    "Class assignment": "high end"
  }
]
